- assay.notes: Selectivity ratio of CC50 for human MRC5 SV2 cells to IC50 for chloroquine-sensitive Plasmodium falciparum GHA strain
- Assay type: ADME, cell-based
- measurement.parameters: read-out: Ratio CC50/IC50
parameter: selectivity ratio

[[record]]
input_smiles = "O=C1[C@H]2Cc3c([nH]c4ccccc34)[C@@H](c3ccc4c(c3)OC(F)(F)O4)N2C(=O)CN1[C@@H]1CCN(Cc2ccccc2)C1"
observed = 1

[[record]]
input_smiles = "O=C1[C@H]2Cc3c([nH]c4ccccc34)[C@@H](c3ccc4c(c3)OCO4)N2C(=O)CN1[C@@H]1CCN(CCCCCO)C1"
observed = 3

[[record]]
input_smiles = "COc1ccc([C@@H]2c3[nH]c4ccccc4c3C[C@@H]3C(=O)N([C@@H]4CCN(Cc5ccc6c(c5)OCO6)C4)CC(=O)N23)cc1OC"
observed = 25

[[record]]
input_smiles = "O=C1[C@H]2Cc3c([nH]c4ccccc34)[C@@H](c3ccc4c(c3)OCO4)N2C(=O)CN1[C@@H]1CCN(CCOc2ccccc2)C1"
observed = 11

[[record]]
input_smiles = "COc1cc([C@@H]2c3[nH]c4ccccc4c3C[C@@H]3C(=O)N([C@@H]4CCN(Cc5ccccc5)C4)CC(=O)N23)ccc1O"
observed = 44

[[record]]
input_smiles = "COc1ccc([C@@H]2c3[nH]c4ccccc4c3C[C@@H]3C(=O)N([C@@H]4CCN(Cc5ccccc5)C4)CC(=O)N23)cc1O"
observed = 36


* * *

Reported selectivity ratio values for the following compounds.
- assay.notes: Selectivity ratio of CC50 for human MRC5 SV2 cells to IC50 for chloroquine-sensitive Plasmodium falciparum GHA strain
- Format: ADME, cell-based
- measurement.parameters: read-out: Ratio CC50/IC50
parameter: selectivity ratio

[[record]]
input_smiles = "O=C1[C@H]2Cc3c([nH]c4ccccc34)[C@@H](c3ccc4nsnc4c3)N2C(=O)CN1[C@@H]1CCN(Cc2ccccc2)C1"
limit_sign = "="
observed = 50

[[record]]
input_smiles = "O=C1[C@H]2Cc3c([nH]c4ccccc34)[C@@H](c3ccc4c(c3)OCO4)N2C(=O)CN1[C@@H]1CCN(CCc2ccccc2)C1"
limit_sign = "="
observed = 1

[[record]]
input_smiles = "CN(C)c1ccc(CN2CC[C@@H](N3CC(=O)N4[C@H](c5ccc6c(c5)OCO6)c5[nH]c6ccccc6c5C[C@@H]4C3=O)C2)cc1"
limit_sign = "<"
observed = 1

[[record]]
input_smiles = "O=C1[C@H]2Cc3c([nH]c4ccccc34)[C@@H](c3ccc4nnnn4c3)N2C(=O)CN1[C@@H]1CCN(Cc2ccccc2)C1"
limit_sign = "="
observed = 3

[[record]]
input_smiles = "COc1ccc([C@@H]2c3[nH]c4ccccc4c3C[C@@H]3C(=O)N(C)CC(=O)N23)cc1OC"
limit_sign = ">"
observed = 64

[[record]]
input_smiles = "CN(C)C(=O)CN1CC[C@@H](N2CC(=O)N3[C@H](c4ccc5c(c4)OCO5)c4[nH]c5ccccc5c4C[C@@H]3C2=O)C1"
limit_sign = ">"
observed = 32

[[record]]
input_smiles = "O=C1[C@H]2Cc3c([nH]c4ccccc34)[C@@H](c3ccc4c(c3)OCO4)N2C(=O)CN1[C@@H]1CCN(CC2CCCCC2)C1"
limit_sign = "="
observed = 7


* * *

- assay.notes: Selectivity ratio of CC50 for human MRC5 SV2 cells to IC50 for chloroquine-sensitive Plasmodium falciparum GHA strain
- Assay type: ADME, cell-based
- measurement.parameters: read-out: Ratio CC50/IC50
parameter: selectivity ratio

[[record]]
input_smiles = "COc1ccc([C@@H]2c3[nH]c4ccccc4c3C[C@@H]3C(=O)N([C@@H]4CCN(Cc5nccn5C)C4)CC(=O)N23)cc1OC"
limit_sign = "="
observed = 37

[[record]]
input_smiles = "O=C1[C@H]2Cc3c([nH]c4ccccc34)[C@@H](c3ccc(Cl)nc3)N2C(=O)CN1[C@@H]1CCN(Cc2ccccc2)C1"
limit_sign = "="
observed = 1

[[record]]
input_smiles = "COc1ccc([C@@H]2c3[nH]c4ccccc4c3C[C@@H]3C(=O)N([C@@H]4CCN(CCNC(=O)OC(C)(C)C)C4)CC(=O)N23)cc1OC"
limit_sign = "="
observed = 10

[[record]]
input_smiles = "O=C1[C@H]2Cc3c([nH]c4ccccc34)[C@@H](c3ccc(OC(F)F)cc3)N2C(=O)CN1[C@@H]1CCN(Cc2ccccc2)C1"
limit_sign = ">"
observed = 6

[[record]]
input_smiles = "O=C1[C@H]2Cc3c([nH]c4ccccc34)[C@@H](c3ccc4c(c3)OCCO4)N2C(=O)CN1[C@@H]1CCN(Cc2ccccc2)C1"
limit_sign = ">"
observed = 13

[[record]]
input_smiles = "O=C1[C@H]2Cc3c([nH]c4ccccc34)[C@@H](c3ccc4c(c3)OCO4)N2C(=O)CN1[C@@H]1CCN(Cc2ccccn2)C1"
limit_sign = "="
observed = 13

